- Tested on: HL-60(TB)
Answer each item with its documented GI50.
# number only, unit nM dropped from output

Record COc1cc(-c2cc(/C=C/C(=O)c3ccc(Cl)c(Cl)c3)[nH]n2)cc(OC)c1OC [12e] : what is its GI50 with HL-60(TB)?
7180

Short answer please: GI50, HL-60(TB), entry COc1cc(-c2cc(/C=C/C(=O)c3ccc4c(c3)OCO4)[nH]n2)cc(OC)c1OC [11e]
2170

Param readout= GI50; system= HL-60(TB); entry= COc1ccc(C(=O)/C=C/c2cc(-c3cc(OC)c(OC)c(OC)c3)n[nH]2)cc1 ; returns value.
2160

Notebook entry, HL-60(TB) assay: GI50 of COc1ccc(C(=O)/C=C/c2cc(-c3cc(OC)c(OC)c(OC)c3)n[nH]2)cc1OC = ?
1440

Find GI50 (HL-60(TB)) for the entry COc1cc(C(=O)/C=C/c2cc(-c3cc(OC)c(OC)c(OC)c3)n[nH]2)cc(OC)c1OC [10e]
1930

So what GI50 did COc1cc(-c2cc(/C=C/C(=O)c3ccc(F)c(F)c3)[nH]n2)cc(OC)c1OC [13e] get with HL-60(TB)?
2480

Provide value of GI50 for this record tested with HL-60(TB): COc1ccc(C(=O)/C=C/c2cc(-c3ccc4c(c3)OCO4)n[nH]2)cc1OC
2820

###

assay readout: GI50 (µM)
Entry rule: numbers only, all in µM.

Find the measured GI50: item COc1ccc(C(=O)/C=C/c2cc(-c3ccc4c(c3)OCO4)n[nH]2)cc1OC , target or system BT-549.
1.9

Requested read-out GI50, target or system BT-549, entry COc1cc(-c2cc(/C=C/C(=O)c3ccc4c(c3)OCO4)[nH]n2)cc(OC)c1OC [11e]
2.37

Lookup: GI50 / BT-549 / COc1cc(C(=O)/C=C/c2cc(-c3cc(OC)c(OC)c(OC)c3)n[nH]2)cc(OC)c1OC [10e]
1.57

Which GI50 is reported with BT-549 for this entry: COc1ccc(C(=O)/C=C/c2cc(-c3cc(OC)c(OC)c(OC)c3)n[nH]2)cc1 ?
1.86

Requested read-out GI50, target or system BT-549, entry COc1ccc(C(=O)/C=C/c2cc(-c3cc(OC)c(OC)c(OC)c3)n[nH]2)cc1OC
1.44

Form field - read-out: GI50; system: BT-549; submitted item: COc1cc(-c2cc(/C=C/C(=O)c3ccc(Cl)c(Cl)c3)[nH]n2)cc(OC)c1OC [12e]
8.4

Please state recorded GI50 (tested on BT-549) of COc1cc(-c2cc(/C=C/C(=O)c3ccc(F)c(F)c3)[nH]n2)cc(OC)c1OC [13e]
4.11

###

// GI50 collected for PC-3
Unit nM implied. Number only.

Which GI50 is listed for COc1ccc(C(=O)/C=C/c2cc(-c3cc(OC)c(OC)c(OC)c3)n[nH]2)cc1OC ?
1360

Would you mind telling me what GI50 value was observed for COc1cc(-c2cc(/C=C/C(=O)c3ccc(F)c(F)c3)[nH]n2)cc(OC)c1OC [13e] ?
1660

Which measured GI50 value corresponds to COc1ccc(C(=O)/C=C/c2cc(-c3cc(OC)c(OC)c(OC)c3)n[nH]2)cc1 ?
1510

Endpoint output: GI50 of COc1cc(-c2cc(/C=C/C(=O)c3ccc4c(c3)OCO4)[nH]n2)cc(OC)c1OC [11e] . Value?
2810

# lookup: GI50 of COc1ccc(C(=O)/C=C/c2cc(-c3ccc4c(c3)OCO4)n[nH]2)cc1OC
2500

So what does the record say about GI50 for COc1cc(-c2cc(/C=C/C(=O)c3ccc(Cl)c(Cl)c3)[nH]n2)cc(OC)c1OC [12e] ?
5950

What does the record list as GI50 for COc1cc(C(=O)/C=C/c2cc(-c3cc(OC)c(OC)c(OC)c3)n[nH]2)cc(OC)c1OC [10e] ?
1470

###

- Tested on: human tumor cell lines
- assay explanation: NCI SRB cytotoxicity, all fifty nine human tumor cell lines
- Assay type: cell-based
- condition notes: Homo sapiens, across fifty nine cell lines in nine cell panels; read-out: GI50 value range
assay readout: GI50

Would you mind telling me what GI50 value was observed for COc1ccc(C(=O)/C=C/c2cc(-c3ccc4c(c3)OCO4)n[nH]2)cc1OC [8f] ?
0.18 to 29.2 µM

Entry COc1cc(C(=O)/C=C/c2cc(-c3cc(OC)c(OC)c(OC)c3)n[nH]2)cc(OC)c1OC [10e] has what GI50?
0.18 to 29.2 µM

Sample COc1cc(-c2cc(/C=C/C(=O)c3ccc(F)c(F)c3)[nH]n2)cc(OC)c1OC [13e] — what was its GI50?
0.18 to 29.2 µM

# GI50 lookup, item COc1cc(-c2cc(/C=C/C(=O)c3ccc4c(c3)OCO4)[nH]n2)cc(OC)c1OC [11e]
0.18 to 29.2 µM

Which measured GI50 value corresponds to COc1cc(-c2cc(/C=C/C(=O)c3ccc(Cl)c(Cl)c3)[nH]n2)cc(OC)c1OC [12e] ?
0.18 to 29.2 µM

Which GI50 is listed for COc1ccc(C(=O)/C=C/c2cc(-c3cc(OC)c(OC)c(OC)c3)n[nH]2)cc1OC [8e] ?
0.18 to 29.2 µM

Fill in: GI50 of COc1ccc(C(=O)/C=C/c2cc(-c3cc(OC)c(OC)c(OC)c3)n[nH]2)cc1 [7e] is ___
0.18 to 29.2 µM

###

- Tested on: Melanoma
- assay explanation: NCI SRB cytotoxicity, melanoma panel average
- Type: cell-based, human
- condition notes: Homo sapiens, average of cell lines, read-out: Log10 LC50 (concentration in mol/L causing 50% cell death) (converted)
I'd appreciate it if you marked entries 1 (yes) when LC50 is lower than 60 µM and 0 (no) when it is not.

For COc1cc(-c2cc(/C=C/C(=O)c3ccc(F)c(F)c3)[nH]n2)cc(OC)c1OC [13e] , is the recorded LC50 below the cut-off of 60 µM?
0 (no)

Does the reported LC50 of the following molecule sit strictly below 60 µM? COc1cc(C(=O)/C=C/c2cc(-c3cc(OC)c(OC)c(OC)c3)n[nH]2)cc(OC)c1OC [10e]
1 (yes)

Answer whether the molecule COc1ccc(C(=O)/C=C/c2cc(-c3ccc4c(c3)OCO4)n[nH]2)cc1OC has LC50 strictly less than 60 µM
0 (no)

Just wondering, is LC50 of COc1cc(-c2cc(/C=C/C(=O)c3ccc(Cl)c(Cl)c3)[nH]n2)cc(OC)c1OC [12e] below 60 µM?
0 (no)

# strict comparison: is reported LC50 < 60 µM? input = COc1ccc(C(=O)/C=C/c2cc(-c3cc(OC)c(OC)c(OC)c3)n[nH]2)cc1
1 (yes)

Criterion: LC50 strictly below 60 µM. Is it met by COc1cc(-c2cc(/C=C/C(=O)c3ccc4c(c3)OCO4)[nH]n2)cc(OC)c1OC [11e] ?
0 (no)

Input COc1ccc(C(=O)/C=C/c2cc(-c3cc(OC)c(OC)c(OC)c3)n[nH]2)cc1OC ; condition: LC50 strictly below 60 µM. Does it hold?
1 (yes)

###

assay readout: GI50 (µM)
Give the number; µM is assumed, so skip it.

Field: GI50 (SK-MEL-2). Entry: COc1cc(C(=O)/C=C/c2cc(-c3cc(OC)c(OC)c(OC)c3)n[nH]2)cc(OC)c1OC [10e]
1.96

API: value(readout= GI50, system= SK-MEL-2, query= COc1ccc(C(=O)/C=C/c2cc(-c3ccc4c(c3)OCO4)n[nH]2)cc1OC )
6.93

Requested read-out GI50, target or system SK-MEL-2, entry COc1ccc(C(=O)/C=C/c2cc(-c3cc(OC)c(OC)c(OC)c3)n[nH]2)cc1OC
1.85

Recorded GI50 for COc1cc(-c2cc(/C=C/C(=O)c3ccc4c(c3)OCO4)[nH]n2)cc(OC)c1OC [11e] with SK-MEL-2, please?
10.3

For the record COc1ccc(C(=O)/C=C/c2cc(-c3cc(OC)c(OC)c(OC)c3)n[nH]2)cc1 , what value of GI50 is listed for SK-MEL-2?
4.14

Form: Entry = COc1cc(-c2cc(/C=C/C(=O)c3ccc(Cl)c(Cl)c3)[nH]n2)cc(OC)c1OC [12e] | System = SK-MEL-2 | GI50 = ____
13.9

Quick check: GI50 on SK-MEL-2, item COc1cc(-c2cc(/C=C/C(=O)c3ccc(F)c(F)c3)[nH]n2)cc(OC)c1OC [13e] ?
2.3

###

- Test system: human tumor cell lines
- assay explanation: NCI SRB cytotoxicity, all fifty nine human tumor cell lines
- Format: cell-based
- condition notes: against cancer cell lines, in words
assay readout: cytotoxicity

compound="COc1cc(-c2cc(/C=C/C(=O)c3ccc4c(c3)OCO4)[nH]n2)cc(OC)c1OC [11e]" assay_readout=cytotoxicity reported="significant cytotoxicity"
compound="COc1ccc(C(=O)/C=C/c2cc(-c3cc(OC)c(OC)c(OC)c3)n[nH]2)cc1 [7e]" assay_readout=cytotoxicity reported="significant cytotoxicity"
compound="COc1ccc(C(=O)/C=C/c2cc(-c3ccc4c(c3)OCO4)n[nH]2)cc1OC [8f]" assay_readout=cytotoxicity reported="significant cytotoxicity"

These entries and their values trace back to patent US9604933B2.
